Recorded half-life by entry
- Procedure summary: Half life in mouse at 1 mg/kg, iv measured upto 60 mins by LC-MS/MS analysis
- Type: ADME, organism-based
- Particulars: in vivo
Please respond with the number in h and leave the unit unwritten.

Study these solved cases before continuing.
Cc1ncsc1-c1ccc([C@H](C)NC(=O)[C@@H]2C[C@@H](O)CN2C(=O)[C@@H](c2cc(N3CCN(CC4CCN(C[C@H]5C[C@H](Oc6cc(N7C8CCC7CN(c7cc(-c9ccccc9O)nnc7N)C8)ccn6)C5)CC4)CC3)no2)C(C)C)cc1; 17
Cc1ncsc1-c1ccc([C@H](C)NC(=O)[C@@H]2C[C@@H](O)CN2C(=O)[C@@H](c2cc(N3CCC(CN4CCC(O[C@H]5C[C@H](Oc6cc(N7C8CCC7CN(c7cc(-c9ccccc9O)nnc7N)C8)ccn6)C5)CC4)CC3)no2)C(C)C)cc1; 16
Cc1ncsc1-c1ccc([C@H](C)NC(=O)[C@@H]2C[C@@H](O)CN2C(=O)[C@@H](c2cc(N3CCC(O[C@H]4C[C@H](Oc5cc(N6C7CCC6CN(c6cc(-c8ccccc8O)nnc6N)C7)ccn5)C4)CC3)no2)C(C)C)cc1; 1.4

Inquiry: So what's the measured half-life for this one? Cc1ncsc1-c1ccc([C@H](C)NC(=O)[C@@H]2C[C@@H](O)CN2C(=O)[C@@H](c2cc(OCCN3CCC(O[C@H]4C[C@H](Oc5cc(N6C7CCC6CN(c6cc(-c8ccccc8O)nnc6N)C7)ccn5)C4)CC3)no2)C(C)C)cc1
Reply text: 2.6

* * *

- System: NCI-H1944
- Procedure summary: Antiproliferative activity against BRM-dependent human NCI-H1944 cells assessed as growth inhibition incubated for 7 days by celltiter glo 2.0 assay
- Assay type: functional
- Particulars: NCI-H1944, 168 h, time 7 day
One threshold, 0.6 nM, splits the recorded GI50 values: lower ones are Met, equal or higher ones are Not met.

Cc1ncsc1-c1ccc([C@H](C)NC(=O)[C@@H]2C[C@@H](O)CN2C(=O)[C@@H](c2cc(OCCN3CCC(O[C@H]4C[C@H](Oc5cc(N6C7CCC6CN(c6cc(-c8ccccc8)nnc6N)C7)ccn5)C4)CC3)no2)C(C)C)cc1; Not met
Cc1ncsc1-c1ccc([C@H](C)NC(=O)[C@@H]2C[C@@H](O)CN2C(=O)[C@@H](c2cc(OCCN3CCN(CCOc4cc(N5C6CCC5CN(c5cc(-c7ccccc7O)nnc5N)C6)ccn4)C[C@@H]3C)no2)C(C)C)cc1; Not met
Cc1ncsc1-c1ccc([C@H](C)NC(=O)[C@@H]2C[C@@H](O)CN2C(=O)[C@@H](c2cc(N3CCN(C[C@H]4C[C@H](Oc5cc(N6C7CCC6CN(c6cc(-c8ccccc8O)nnc6N)C7)ccn5)C4)CC3)no2)C(C)C)cc1; Met
Cc1ncsc1-c1ccc([C@H](C)NC(=O)[C@@H]2C[C@@H](O)CN2C(=O)[C@@H](c2cc(OCCN3CCN(CCOc4cc(N5C6CCC5CN(c5cc(-c7ccccc7O)nnc5N)C6)ccn4)CC3)no2)C(C)C)cc1; Met
Cc1ncsc1-c1ccc([C@H](C)NC(=O)[C@@H]2C[C@@H](O)CN2C(=O)[C@@H](c2cc(OCCN3CCN(CCOc4cc(N5C6CCC5CN(c5cc(-c7ccccc7O)nnc5N)C6)ccn4)[C@H](C)C3)no2)C(C)C)cc1; Met
Cc1ncsc1-c1ccc([C@H](C)NC(=O)[C@@H]2C[C@@H](O)CN2C(=O)[C@@H](c2cc(OCC#Cc3ccc(O[C@H]4C[C@H](Oc5cc(N6C7CCC6CN(c6cc(-c8ccccc8O)nnc6N)C7)ccn5)C4)cn3)no2)C(C)C)cc1; Not met
Cc1ncsc1-c1ccc([C@H](C)NC(=O)[C@@H]2C[C@@H](O)CN2C(=O)[C@@H](c2cc(N3CCN(CCN4CCC(O[C@H]5C[C@H](Oc6cc(N7C8CCC7CN(c7cc(-c9ccccc9O)nnc7N)C8)ccn6)C5)CC4)CC3)no2)C(C)C)cc1; Not met
Cc1ncsc1-c1ccc(CNC(=O)[C@@H]2C[C@@H](O)CN2C(=O)[C@@H](c2cc(OCCN3CCN(CCOc4cc(N5C6CCC5CN(c5cc(-c7ccccc7O)nnc5N)C6)ccn4)CC3)no2)C(C)C)cc1; Not met

Inquiry: Is GI50 strictly under 0.6 nM for the entry Cc1ncsc1-c1ccc([C@H](C)NC(=O)[C@@H]2C[C@@H](O)CN2C(=O)[C@@H](c2cc(OCCN3CCC(O[C@H]4C[C@H](Oc5cc(N6C7CCC6CN(c6cc(-c8ccccc8O)nnc6N)C7)ccn5)C4)CC3)no2)C(C)C)cc1 ?
Reply text: Not met

Inquiry: And what about the molecule Cc1ncsc1-c1ccc([C@H](C)NC(=O)[C@@H]2C[C@@H](O)CN2C(=O)[C@@H](c2cc(N3CCN(CC4CCN(C[C@H]5C[C@H](Oc6cc(N7C8CCC7CN(c7cc(-c9ccccc9O)nnc7N)C8)ccn6)C5)CC4)CC3)no2)C(C)C)cc1 ?
Reply text: Not met

* * *

- Procedure summary: Clearance in mouse at 1 mg/kg, iv measured upto 60 mins by LC-MS/MS analysis
- Type: ADME, organism-based
- Particulars: in vivo, 1 h
Endpoint label: clearance (mL/min/kg)
Give just the numeric value; mL/min/kg need not be written.

See these solved cases before continuing.
Cc1ncsc1-c1ccc([C@H](C)NC(=O)[C@@H]2C[C@@H](O)CN2C(=O)[C@@H](c2cc(N3CCC(CN4CCC(Oc5cc(N6C7CCC6CN(c6cc(-c8ccccc8O)nnc6N)C7)ccn5)CC4)CC3)no2)C(C)C)cc1; 6.7
Cc1ncsc1-c1ccc([C@H](C)NC(=O)[C@@H]2C[C@@H](O)CN2C(=O)[C@@H](c2cc(OCC#Cc3ccc(O[C@H]4C[C@H](Oc5cc(N6C7CCC6CN(c6cc(-c8ccccc8O)nnc6N)C7)ccn5)C4)cn3)no2)C(C)C)cc1; 22
Cc1ncsc1-c1ccc([C@H](C)NC(=O)[C@@H]2C[C@@H](O)CN2C(=O)[C@@H](c2cc(N3CCN(CC4CCN(C[C@H]5C[C@H](Oc6cc(N7C8CCC7CN(c7cc(-c9ccccc9O)nnc7N)C8)ccn6)C5)CC4)CC3)no2)C(C)C)cc1; 12
Cc1ncsc1-c1ccc([C@H](C)NC(=O)[C@@H]2C[C@@H](O)CN2C(=O)[C@@H](c2cc(N3CCC(O[C@H]4C[C@H](Oc5cc(N6C7CCC6CN(c6cc(-c8ccccc8O)nnc6N)C7)ccn5)C4)CC3)no2)C(C)C)cc1; 9.2

Inquiry: Value lookup for clearance; key = Cc1ncsc1-c1ccc([C@H](C)NC(=O)[C@@H]2C[C@@H](O)CN2C(=O)[C@@H](c2cc(N3CCN(CCN4CCC(O[C@H]5C[C@H](Oc6cc(N7C8CCC7CN(c7cc(-c9ccccc9O)nnc7N)C8)ccn6)C5)CC4)CC3)no2)C(C)C)cc1
Reply text: 9.6

Inquiry: Next record, please: Cc1ncsc1-c1ccc([C@H](C)NC(=O)[C@@H]2C[C@@H](O)CN2C(=O)[C@@H](c2cc(N3CCN(C[C@H]4C[C@H](Oc5cc(N6C7CCC6CN(c6cc(-c8ccccc8O)nnc6N)C7)ccn5)C4)CC3)no2)C(C)C)cc1
Reply text: 11

* * *

- Procedure summary: Initial plasma concentration in CD-1 mouse at 30 mg/kg, iv measured for 24 hrs
- Assay type: ADME, organism-based
Endpoint label: C0 at 24 h (µg/mL)
Enter your answer as a number in µg/mL; do not include the unit.

Inquiry: GET /values?readout=C0 at 24 h&item= Cc1ncsc1-c1ccc([C@H](C)NC(=O)[C@@H]2C[C@@H](O)CN2C(=O)[C@@H](c2cc(N3CCC(CN4CCC(O[C@H]5C[C@H](Oc6cc(N7C8CCC7CN(c7cc(-c9ccccc9O)nnc7N)C8)ccn6)C5)CC4)CC3)no2)C(C)C)cc1
Reply text: 58

* * *

- Procedure summary: Plasma protein binding in mouse incubated for 15 mins by LC-MS/MS analysis
- Assay type: ADME, cell-free
- Particulars: read-out: PPB (converted)
Quick reference: fraction unbound at 0.25 h of the listed items.
Respond with the number and no other words.

Cc1ncsc1-c1ccc([C@H](C)NC(=O)[C@@H]2C[C@@H](O)CN2C(=O)[C@@H](c2cc(OCC#Cc3ccc(O[C@H]4C[C@H](Oc5cc(N6C7CCC6CN(c6cc(-c8ccccc8O)nnc6N)C7)ccn5)C4)cn3)no2)C(C)C)cc1; 0.016

Next up:
Inquiry: Returns the measured fraction unbound at 0.25 h for the input molecule. Input: Cc1ncsc1-c1ccc([C@H](C)NC(=O)[C@@H]2C[C@@H](O)CN2C(=O)[C@@H](c2cc(N3CCN(CCN4CCC(O[C@H]5C[C@H](Oc6cc(N7C8CCC7CN(c7cc(-c9ccccc9O)nnc7N)C8)ccn6)C5)CC4)CC3)no2)C(C)C)cc1
Reply text: 0.034

* * *

- Procedure summary: Drug concentration in mouse tumor at 20 mg/kg, ip measured for 96 hrs
- Type: ADME, organism-based, Neoplasm
- Particulars: read-out: Ct
Criterion: concentration at 96 h strictly under 200 ng/g. Met: yes (1). Not met: no (0).

These solved cases illustrate the format of a correct answer.
Cc1ncsc1-c1ccc([C@H](C)NC(=O)[C@@H]2C[C@@H](O)CN2C(=O)[C@@H](c2cc(OCCN3CCC(O[C@H]4C[C@H](Oc5cc(N6C7CCC6CN(c6cc(-c8ccccc8O)nnc6N)C7)ccn5)C4)CC3)no2)C(C)C)cc1; yes (1)
Cc1ncsc1-c1ccc([C@H](C)NC(=O)[C@@H]2C[C@@H](O)CN2C(=O)[C@@H](c2cc(OCCN3CCN(CCOc4cc(N5C6CCC5CN(c5cc(-c7ccccc7O)nnc5N)C6)ccn4)[C@H](C)C3)no2)C(C)C)cc1; yes (1)
Cc1ncsc1-c1ccc([C@H](C)NC(=O)[C@@H]2C[C@@H](O)CN2C(=O)[C@@H](c2cc(N3CCN(C[C@H]4C[C@H](Oc5cc(N6C7CCC6CN(c6cc(-c8ccccc8O)nnc6N)C7)ccn5)C4)CC3)no2)C(C)C)cc1; yes (1)
Cc1ncsc1-c1ccc([C@H](C)NC(=O)[C@@H]2C[C@@H](O)CN2C(=O)[C@@H](c2cc(N3CCC(O[C@H]4C[C@H](Oc5cc(N6C7CCC6CN(c6cc(-c8ccccc8O)nnc6N)C7)ccn5)C4)CC3)no2)C(C)C)cc1; yes (1)
Cc1ncsc1-c1ccc([C@H](C)NC(=O)[C@@H]2C[C@@H](O)CN2C(=O)[C@@H](c2cc(N3CCC(CN4CCC(O[C@H]5C[C@H](Oc6cc(N7C8CCC7CN(c7cc(-c9ccccc9O)nnc7N)C8)ccn6)C5)CC4)CC3)no2)C(C)C)cc1; no (0)
Cc1ncsc1-c1ccc([C@H](C)NC(=O)[C@@H]2C[C@@H](O)CN2C(=O)[C@@H](c2cc(N3CCC(CN4CCC(Oc5cc(N6C7CCC6CN(c6cc(-c8ccccc8O)nnc6N)C7)ccn5)CC4)CC3)no2)C(C)C)cc1; no (0)

Attention now shifts to the item below.
Inquiry: Is concentration at 96 h of Cc1ncsc1-c1ccc([C@H](C)NC(=O)[C@@H]2C[C@@H](O)CN2C(=O)[C@@H](c2cc(N3CCN(CCN4CCC(O[C@H]5C[C@H](Oc6cc(N7C8CCC7CN(c7cc(-c9ccccc9O)nnc7N)C8)ccn6)C5)CC4)CC3)no2)C(C)C)cc1 strictly below 200 ng/g?
Reply text: no (0)
